- System Name: T1, HLA-A2.1 on T2 cells (human)
- T1 construct: Peptide-receptive HLA-A2.1 on T2 cells; also called HLA-A2.1 MHC class I molecules
- Experiment: peptide binding to HLA-A2.1+ T2 cells, complex stability; Brefeldin A 4 hr (T2 alone 187)
Measured Attribute: binding score (HLA-A2.1 on T2 cells)
Give only the figure.

Consider YIGSGDSPV (Modified CD33 peptide) [YIGSGDSPV (SEQ ID NO: 10)] . Its measured binding score (HLA-A2.1 on T2 cells) is 167

Consider TIQLNVTYV (Native CD33 nonamer, extracellular domain; also called CD33226-234) [CD33 peptide TIQLNVTYV (residues 226-234, SEQ ID NO: 9)] . Its measured binding score (HLA-A2.1 on T2 cells) is 180

Consider ALISGDSPV (Modified CD33 peptide) [ALISGDSPV (SEQ ID NO: 16)] . Its measured binding score (HLA-A2.1 on T2 cells) is 692
